- Assay System: HIV-1 IN (Human immunodeficiency virus type 1 group M subtype B, UniProt P04585)
- Assay: HIV-1 IN 3′processing assay
- Format: biochemical
- Cond: 600 nM IN; increasing concentrations
Measurement Type: inhibitory effect on 3′processing

Note to self: inhibitory effect on 3′processing recorded for `Oc1ccc(/C=C/c2cc(O)cc3c2[C@H](c2cc(O)cc(O)c2)[C@@H](c2ccc(O)c(O)c2)O3)cc1` was low

Note to self: inhibitory effect on 3′processing recorded for Oc1ccc(C(O)C2c3cc(O)cc(O)c3[C@H](c3ccc(O)cc3)[C@H]2c2cc(O)cc(O)c2)cc1 (some centres unmarked) [leachianol G] was low
